system: 485176-168-R4-J1-PDC complex spheroid growth; experiment: Anticancer human tumor 485176-168-R4-J1-PDC patient-derived pancreatic adenocarcinoma cell line growth inhibition [RAS]; conditions: second compound 0.0316 µM; first compound 0.000949 µM; stronger effect = lower value
measurementName: viability, T/C (%)
Give just the numeric value; % need not be written.

Observe how each entry below is paired with its result.
CCc1c2c(nc3ccc(O)cc13)-c1cc3c(c(=O)n1C2)COC(=O)[C@]3(O)CC + C=CC(=O)N1CCN(c2nc(OCC3CCCN3C)nc3c(F)c(-c4nc(N)cc(C)c4C(F)(F)F)c(Cl)cc23)C(C)C1	84.8
CC1(C)CCC(Nc2ncc(C(F)(F)F)c(-c3c[nH]c4c(P(C)(C)=O)c(C#N)ccc34)n2)CN1 (centres undefined) + C=CC(=O)N1CCN(c2nc(OCC3CCCN3C)nc3c(F)c(-c4nc(N)cc(C)c4C(F)(F)F)c(Cl)cc23)C(C)C1	100
CCc1c2c(nc3ccc(O)cc13)-c1cc3c(c(=O)n1C2)COC(=O)[C@]3(O)CC + C#Cc1c(F)ccc2cc(O)cc(-c3ncc4c(N5CC6CCC(C5)N6)nc(OCC56CCCN5CC(F)C6)nc4c3F)c12	93.9

Alright, here's another compound for you.
Enquiry: What value of measured viability, T/C is listed for CC1(C)CCC(Nc2ncc(C(F)(F)F)c(-c3c[nH]c4c(P(C)(C)=O)c(C#N)ccc34)n2)CN1 (centres undefined) + C#Cc1c(F)ccc2cc(O)cc(-c3ncc4c(N5CC6CCC(C5)N6)nc(OCC56CCCN5CC(F)C6)nc4c3F)c12 ?
Return: 106

----------
test system: 485176-168-R4-J1-PDC complex spheroid growth; assay: Anticancer human tumor 485176-168-R4-J1-PDC cell line growth inhibition [RAS]; conditions: curve of first compound; second compound 10 µM;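 also: spheroids exposed to compounds for seven days before readout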
Here, each record is paired with measured IC50 data.

Enquiry: What value of measured IC50 is listed for C=CC(=O)N1CCN(c2nc(OCC3CCCN3C)nc3c(F)c(-c4nc(N)cc(C)c4C(F)(F)F)c(Cl)cc23)C(C)C1 (stereo not drawn) + C#Cc1c(F)ccc2cc(O)cc(-c3ncc4c(N5CC6CCC(C5)N6)nc(OCC56CCCN5CC(F)C6)nc4c3F)c12 ?
Return: > 1000 nM

Enquiry: What value of measured IC50 is listed for NC1c2ccccc2OC12CCN(c1cnc3c(N4CCCc5ncccc54)n[nH]c3n1)CC2 (stereo not drawn) + C#Cc1c(F)ccc2cc(O)cc(-c3ncc4c(N5CC6CCC(C5)N6)nc(OCC56CCCN5CC(F)C6)nc4c3F)c12 ?
Return: > 10000 nM

Enquiry: What value of measured IC50 is listed for CCc1c2c(nc3ccc(O)cc13)-c1cc3c(c(=O)n1C2)COC(=O)[C@]3(O)CC + C#Cc1c(F)ccc2cc(O)cc(-c3ncc4c(N5CC6CCC(C5)N6)nc(OCC56CCCN5CC(F)C6)nc4c3F)c12 ?
Return: 27.2 nM

----------
Here, each record is paired with measured viability, T/C data.
system: 485176-168-R4-J1-PDC complex spheroid growth; experiment: Anticancer human tumor 485176-168-R4-J1-PDC cell line growth inhibition [RAS]; conditions: second compound 3.16 µM; first compound 0.0316 µM; stronger effect = lower value;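 also: spheroids exposed to compounds for seven days before readout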;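 as to viability, T/C: luminescence viability expressed relative to DMSO vehicle wells set as 100%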
Give just the numeric value; % need not be written.

CCN1CCN(Cc2ccc(Nc3ncc(F)c(-c4cc(F)c5nc(C)n(C(C)C)c5c4)n3)nc2)CC1 + C#Cc1c(F)ccc2cc(O)cc(-c3ncc4c(N5CC6CCC(C5)N6)nc(OCC56CCCN5CC(F)C6)nc4c3F)c12	81.5
CC1(O)CCCC1n1c(=O)c(C(F)F)cc2cnc(NC3CCN(S(C)(=O)=O)CC3)nc21 (centres undefined) + C#Cc1c(F)ccc2cc(O)cc(-c3ncc4c(N5CC6CCC(C5)N6)nc(OCC56CCCN5CC(F)C6)nc4c3F)c12	104
CC(Nc1ccc2c(c1)OCCn1cc(N3C(=O)OCC3C(F)F)nc1-2)C(N)=O (centres undefined) + C#Cc1c(F)ccc2cc(O)cc(-c3ncc4c(N5CC6CCC(C5)N6)nc(OCC56CCCN5CC(F)C6)nc4c3F)c12	107

Alright, here's another molecule for you.
Enquiry: What value of measured viability, T/C is listed for C[C@@H](NC(=O)c1ncnc(N)c1Cl)c1ncc(C(=O)Nc2cc(C(F)(F)F)c(Cl)cn2)s1 + C#Cc1c(F)ccc2cc(O)cc(-c3ncc4c(N5CC6CCC(C5)N6)nc(OCC56CCCN5CC(F)C6)nc4c3F)c12 ?
Return: 103

----------
Test system: 485176-168-R4-J1-PDC complex spheroid growth
Experiment: Anticancer human tumor 485176-168-R4-J1-PDC cell line growth inhibition [RAS];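 also: spheroids exposed to compounds for seven days before readout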;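 as to viability, T/C: luminescence viability expressed relative to DMSO vehicle wells set as 100%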
Settings: second compound 0.003 µM; first compound 0.1 µM; stronger effect = lower value
Source text: RAS pathway inhibitors in Combinations in Complex Spheroids A high-throughput screen of multi-cell type tumor spheroids was designed to identify active combinations of RAS pathway inhibitors and targeted small molecules. Complex spheroids include a stromal component modeled by human endothelial cells (HUVEC) and fibroblasts modeled by human mesenchymal stem cells (MSCs). […] Compounds. […] If the clinical Cmax for an agent had not been determined, the highest concentration tested was 10 microM. […]
So basically, if viability, T/C comes in under 90% it's Satisfied, and if it's 90% or more it's Not satisfied.

C=CC(=O)Nc1cc(Nc2nccc(-c3cn(C)c4ccccc34)n2)c(OC)cc1N(C)CCN(C)C + CCn1c(-c2cccnc2C(C)OC)c2c3cc(ccc31)N1CCOC(CC(NC(=O)C(C(C)C)N(C)C(=O)C3(F)CCN(C(=O)C#CC(C)(C)N(C)C)CC3)C(=O)N3CCCC(N3)C(=O)OCC(C)(C)C2)C1	Satisfied
CC(C)n1nc(-c2ccc3oc(N)nc3c2)c2c(N)ncnc21 + CCn1c(-c2cccnc2C(C)OC)c2c3cc(ccc31)N1CCOC(CC(NC(=O)C(C(C)C)N(C)C(=O)C3(F)CCN(C(=O)C#CC(C)(C)N(C)C)CC3)C(=O)N3CCCC(N3)C(=O)OCC(C)(C)C2)C1	Satisfied
C[C@@H](NC(=O)c1ncnc(N)c1Cl)c1ncc(C(=O)Nc2cc(C(F)(F)F)c(Cl)cn2)s1 + CCn1c(-c2cc(N3CCN(C)CC3)cnc2C(C)OC)c2c3cc(ccc31)-c1csc(n1)CC(NC(=O)C1CC1C)C(=O)N1CCCC(N1)C(=O)OCC(C)(C)C2	Not satisfied
CC(Nc1ccc2c(c1)OCCn1cc(N3C(=O)OCC3C(F)F)nc1-2)C(N)=O (stereo not given) + CCn1c(-c2cccnc2C(C)OC)c2c3cc(ccc31)N1CCOC(CC(NC(=O)C(C(C)C)N(C)C(=O)C3(F)CCN(C(=O)C#CC(C)(C)N(C)C)CC3)C(=O)N3CCCC(N3)C(=O)OCC(C)(C)C2)C1	Satisfied

Enquiry: Check if viability, T/C falls below 90% for Nc1ccn(C2OC(CO)C(O)C2(F)F)c(=O)n1 (stereo not given) + CCn1c(-c2cc(N3CCN(C)CC3)cnc2C(C)OC)c2c3cc(ccc31)-c1csc(n1)CC(NC(=O)C1CC1C)C(=O)N1CCCC(N1)C(=O)OCC(C)(C)C2 .
Return: Satisfied

Enquiry: Check if viability, T/C falls below 90% for CC(C)NCC(C(=O)N1CCN(c2ncnc3c2C(C)CC3O)CC1)c1ccc(Cl)cc1 (stereo not given) + CCn1c(-c2cc(N3CCN(C)CC3)cnc2C(C)OC)c2c3cc(ccc31)-c1csc(n1)CC(NC(=O)C1CC1C)C(=O)N1CCCC(N1)C(=O)OCC(C)(C)C2 .
Return: Not satisfied

Enquiry: Check if viability, T/C falls below 90% for C=CC(=O)N1CCN(c2nc(OCC3CCCN3C)nc3c(F)c(-c4nc(N)cc(C)c4C(F)(F)F)c(Cl)cc23)C(C)C1 (stereo not given) + CCn1c(-c2cccnc2C(C)OC)c2c3cc(ccc31)N1CCOC(CC(NC(=O)C(C(C)C)N(C)C(=O)C3(F)CCN(C(=O)C#CC(C)(C)N(C)C)CC3)C(=O)N3CCCC(N3)C(=O)OCC(C)(C)C2)C1 .
Return: Not satisfied

----------
tested on: 485176-168-R4-J1-PDC complex spheroid growth; experiment: Anticancer human tumor 485176-168-R4-J1-PDC cell line growth inhibition [RAS]; conditions: second compound 0.000949 µM; first compound 0.3 µM; stronger effect = lower value;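 also: spheroids exposed to compounds for seven days before readout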;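 as to viability, T/C: luminescence viability expressed relative to DMSO vehicle wells set as 100%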
Here, each record is paired with measured viability, T/C data.
Give just the numeric value; % need not be written.

CCc1c2c(nc3ccc(O)cc13)-c1cc3c(c(=O)n1C2)COC(=O)[C@]3(O)CC + CCn1c(-c2cccnc2C(C)OC)c2c3cc(ccc31)N1CCOC(CC(NC(=O)C(C(C)C)N(C)C(=O)C3(F)CCN(C(=O)C#CC(C)(C)N(C)C)CC3)C(=O)N3CCCC(N3)C(=O)OCC(C)(C)C2)C1	5.05
CCc1c2c(nc3ccc(O)cc13)-c1cc3c(c(=O)n1C2)COC(=O)[C@]3(O)CC + CCn1c(-c2cc(N3CCN(C)CC3)cnc2C(C)OC)c2c3cc(ccc31)-c1csc(n1)CC(NC(=O)C1CC1C)C(=O)N1CCCC(N1)C(=O)OCC(C)(C)C2	9.25
CC1(C)CCC(Nc2ncc(C(F)(F)F)c(-c3c[nH]c4c(P(C)(C)=O)c(C#N)ccc34)n2)CN1 (centres undefined) + CCn1c(-c2cccnc2C(C)OC)c2c3cc(ccc31)N1CCOC(CC(NC(=O)C(C(C)C)N(C)C(=O)C3(F)CCN(C(=O)C#CC(C)(C)N(C)C)CC3)C(=O)N3CCCC(N3)C(=O)OCC(C)(C)C2)C1	54.1

Enquiry: What value of measured viability, T/C is listed for CC1(C)CCC(Nc2ncc(C(F)(F)F)c(-c3c[nH]c4c(P(C)(C)=O)c(C#N)ccc34)n2)CN1 (centres undefined) + CCn1c(-c2cc(N3CCN(C)CC3)cnc2C(C)OC)c2c3cc(ccc31)-c1csc(n1)CC(NC(=O)C1CC1C)C(=O)N1CCCC(N1)C(=O)OCC(C)(C)C2 ?
Return: 49.3
